# PROTOCOL TEXT: recombinant UMI read abundance after kanamycin selection (control-corrected) (log10(CPM+1)); higher = more efficient recombination; extreme values may be limits of the assay; sequences stand for … in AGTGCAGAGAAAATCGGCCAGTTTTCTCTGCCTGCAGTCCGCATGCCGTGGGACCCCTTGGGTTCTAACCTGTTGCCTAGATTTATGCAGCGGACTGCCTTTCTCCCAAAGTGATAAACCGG…AGGTTGGTTTCACT; site = the 11-nt donor;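 note: IS621 bridge recombinase in Escherichia coli cells against a fixed T5 target plasmid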
PARAMETER MEASURED: recombinant UMI read abundance (log10)
# answer = number (no unit)

recombinant UMI read abundance (log10) reported for this sequence CGCTCCTCATGGACCGGTTTTCCCGGTAATCCGTATTTGCT (site CGATCATCTAG) : 0

Form: sequence = ACATCTACATGGACCGGTTTTCCCGGTAATCCGTATTTGTT (site ACATCTACTAA) ; recombinant UMI read abundance (log10) = 0.142

The reported value for TATTTGGCATGGACCGGTTTTCCCGGTAATCCGTATTTGTT (site TATTTGGCTCA) in terms of recombinant UMI read abundance (log10) is 0.0085

# sequence ATAAGGACATGGACCGGTTTTCCCGGTAATCCGTATTTGAC (site ATAAGGCCTGT) ; its recombinant UMI read abundance (log10) = 0

recombinant UMI read abundance (log10) in this record for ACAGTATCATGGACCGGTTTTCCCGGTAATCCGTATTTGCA (site AGAGTGTCTTG) : 1.6

Field recombinant UMI read abundance (log10) (entry TATCCTCCATGGACCGGTTTTCCCGGTAATCCGTATTTGTT (site TATCCTCCTAA) ) reads 0.0195

# recombinant UMI read abundance (log10) (sequence: AGATAATCATGGACCGGTTTTCCCGGTAATCCGTATTTGCT (site AGATAATCTAG) ) is 3.3

Entry under test: CTCTACACATGGACCGGTTTTCCCGGTAATCCGTATTTGAT (site CTCTACACTAT) . Its recombinant UMI read abundance (log10) was 2.19

Looking up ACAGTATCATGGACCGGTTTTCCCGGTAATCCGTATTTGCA (site GCAGAATCTTG) , I see its recombinant UMI read abundance (log10) listed as 1.47

----------
What recombinant UMI read abundance (log10) was measured for each of the following?
# PROTOCOL TEXT: recombinant UMI read abundance after kanamycin selection (control-corrected) (log10(CPM+1)); higher = more efficient recombination; extreme values may be limits of the assay; sequences stand for … in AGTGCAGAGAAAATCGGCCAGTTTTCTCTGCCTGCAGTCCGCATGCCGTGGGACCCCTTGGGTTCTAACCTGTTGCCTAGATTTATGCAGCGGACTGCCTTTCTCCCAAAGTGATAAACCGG…AGGTTGGTTTCACT; site = the 11-nt donor

Summary for this sequence, GATTATGCATGGACCGGTTTTCCCGGTAATCCGTATTTGCT (site GATTATTCTAG) : recombinant UMI read abundance (log10) is 0

Lab note: measured recombinant UMI read abundance (log10) of AAATGGCCATGGACCGGTTTTCCCGGTAATCCGTATTTGCA (site TAATGGCCTTG) was 0

For this sequence ( CAGTCAACATGGACCGGTTTTCCCGGTAATCCGTATTTGGG (site CAGTCGACTCC) ), measured recombinant UMI read abundance (log10) is 0.0226

Please fill in: recombinant UMI read abundance (log10) reported for GATTATCCATGGACCGGTTTTCCCGGTAATCCGTATTTGCT (site GTTTATCCTAG) = 0

ATTACGGCATGGACCGGTTTTCCCGGTAATCCGTATTTGGA (site ATTACGGCTTC) has a reported recombinant UMI read abundance (log10) of 0.269
